Test system: Acetylcholinesterase (Homo sapiens)
Sequence (P22303 whole entry): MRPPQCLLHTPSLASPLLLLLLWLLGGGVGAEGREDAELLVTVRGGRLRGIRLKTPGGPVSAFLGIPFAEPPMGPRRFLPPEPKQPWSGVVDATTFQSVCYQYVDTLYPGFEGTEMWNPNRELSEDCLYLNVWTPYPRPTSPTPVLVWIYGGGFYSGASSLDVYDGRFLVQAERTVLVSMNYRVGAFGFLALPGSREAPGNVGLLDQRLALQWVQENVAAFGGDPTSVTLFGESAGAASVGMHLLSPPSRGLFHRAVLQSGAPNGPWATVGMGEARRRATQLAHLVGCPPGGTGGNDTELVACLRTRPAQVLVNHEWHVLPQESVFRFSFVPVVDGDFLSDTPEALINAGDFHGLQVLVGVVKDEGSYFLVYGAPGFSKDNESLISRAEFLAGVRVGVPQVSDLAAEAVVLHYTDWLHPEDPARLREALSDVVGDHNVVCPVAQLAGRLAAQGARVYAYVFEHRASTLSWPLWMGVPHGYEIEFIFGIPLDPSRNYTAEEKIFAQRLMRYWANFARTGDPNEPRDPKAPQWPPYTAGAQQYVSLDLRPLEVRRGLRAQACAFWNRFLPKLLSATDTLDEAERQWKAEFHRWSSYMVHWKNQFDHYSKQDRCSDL
Measured attribute: pIC50
Friendly reminder that pIC50 comes from taking -log10 of the concentration in mol/L.

IN: Quick one: pIC50 of Cc1c([C@@H](O)CN2CCN(C[C@H](O)c3ccc4c(c3C)COC4=O)CC2)ccc2c1COC2=O ?
OUT: 5.00

----------
Measurement description: Clearance in rhesus monkey at 1 mg/kg, iv or 2 mg/kg, po
Type: ADME, organism-based, Macaca mulatta
Assay conditions: in vivo
Measured attribute: clearance (mL/min/kg)
# number only, unit mL/min/kg dropped from output

IN: Quick one: clearance of Cc1c([C@@H](O)CN2CCN(C[C@H](O)c3ccc4c(c3C)COC4=O)CC2)ccc2c1COC2=O ?
OUT: 29

----------
Measurement description: Half life in rhesus monkey at 1 mg/kg, iv or 2 mg/kg, po
Assay type: ADME, organism-based, Macaca mulatta
Assay conditions: in vivo
Measured attribute: half-life

IN: Quick one: half-life of Cc1c([C@@H](O)CN2CCN(C[C@H](O)c3ccc4c(c3C)COC4=O)CC2)ccc2c1COC2=O ?
OUT: 4 h

----------
Measurement description: Drug metabolism in rat hepatocytes assessed as glucuronidation at 1 uM measured at 120 mins
Format: ADME, cell-based, Hepatocyte
Assay conditions: read-out: Drug metabolism
Measured attribute: metabolised at 2 h, 1 µM

IN: Quick one: metabolised at 2 h, 1 µM of Cc1c([C@@H](O)CN2CCN(C[C@H](O)c3ccc4c(c3C)COC4=O)CC2)ccc2c1COC2=O [MK-7145] ?
OUT: < 1%

----------
Measurement description: Half life in human
Assay type: ADME
Measured attribute: half-life (h)
# number only, unit h dropped from output

IN: Quick one: half-life of Cc1c([C@@H](O)CN2CCN(C[C@H](O)c3ccc4c(c3C)COC4=O)CC2)ccc2c1COC2=O ?
OUT: 5

----------
Test system: ATP-sensitive inward rectifier potassium channel 1 (Homo sapiens, UniProt P48048)
Measurement description: Inhibition of ROMK (unknown origin) expressed in CHO cells after 6 mins by electrophysiological assay
Format: cell-based
Measured attribute: pIC50
Friendly reminder that pIC50 comes from taking -log10 of the concentration in mol/L.

IN: Quick one: pIC50 of Cc1c(C(F)CN2CCN(CC(F)c3ccc4c(c3C)COC4=O)CC2)ccc2c1COC2=O (stereo unspecified) ?
OUT: 6.93

----------
Measurement description: Volume of distribution at steady state in dog at 1 mg/kg, iv or 2 mg/kg, po
Format: ADME, organism-based, Canis lupus familiaris
Assay conditions: in vivo, read-out: Vdss
Measured attribute: Vd (L/kg)
# number only, unit L/kg dropped from output

IN: Quick one: Vd of Cc1c([C@@H](O)CN2CCN(C[C@H](O)c3ccc4c(c3C)COC4=O)CC2)ccc2c1COC2=O ?
OUT: 7.5

----------
Test system: Sodium channel protein type 5 subunit alpha (Homo sapiens, UniProt Q14524)
Sequence (Q14524 whole entry): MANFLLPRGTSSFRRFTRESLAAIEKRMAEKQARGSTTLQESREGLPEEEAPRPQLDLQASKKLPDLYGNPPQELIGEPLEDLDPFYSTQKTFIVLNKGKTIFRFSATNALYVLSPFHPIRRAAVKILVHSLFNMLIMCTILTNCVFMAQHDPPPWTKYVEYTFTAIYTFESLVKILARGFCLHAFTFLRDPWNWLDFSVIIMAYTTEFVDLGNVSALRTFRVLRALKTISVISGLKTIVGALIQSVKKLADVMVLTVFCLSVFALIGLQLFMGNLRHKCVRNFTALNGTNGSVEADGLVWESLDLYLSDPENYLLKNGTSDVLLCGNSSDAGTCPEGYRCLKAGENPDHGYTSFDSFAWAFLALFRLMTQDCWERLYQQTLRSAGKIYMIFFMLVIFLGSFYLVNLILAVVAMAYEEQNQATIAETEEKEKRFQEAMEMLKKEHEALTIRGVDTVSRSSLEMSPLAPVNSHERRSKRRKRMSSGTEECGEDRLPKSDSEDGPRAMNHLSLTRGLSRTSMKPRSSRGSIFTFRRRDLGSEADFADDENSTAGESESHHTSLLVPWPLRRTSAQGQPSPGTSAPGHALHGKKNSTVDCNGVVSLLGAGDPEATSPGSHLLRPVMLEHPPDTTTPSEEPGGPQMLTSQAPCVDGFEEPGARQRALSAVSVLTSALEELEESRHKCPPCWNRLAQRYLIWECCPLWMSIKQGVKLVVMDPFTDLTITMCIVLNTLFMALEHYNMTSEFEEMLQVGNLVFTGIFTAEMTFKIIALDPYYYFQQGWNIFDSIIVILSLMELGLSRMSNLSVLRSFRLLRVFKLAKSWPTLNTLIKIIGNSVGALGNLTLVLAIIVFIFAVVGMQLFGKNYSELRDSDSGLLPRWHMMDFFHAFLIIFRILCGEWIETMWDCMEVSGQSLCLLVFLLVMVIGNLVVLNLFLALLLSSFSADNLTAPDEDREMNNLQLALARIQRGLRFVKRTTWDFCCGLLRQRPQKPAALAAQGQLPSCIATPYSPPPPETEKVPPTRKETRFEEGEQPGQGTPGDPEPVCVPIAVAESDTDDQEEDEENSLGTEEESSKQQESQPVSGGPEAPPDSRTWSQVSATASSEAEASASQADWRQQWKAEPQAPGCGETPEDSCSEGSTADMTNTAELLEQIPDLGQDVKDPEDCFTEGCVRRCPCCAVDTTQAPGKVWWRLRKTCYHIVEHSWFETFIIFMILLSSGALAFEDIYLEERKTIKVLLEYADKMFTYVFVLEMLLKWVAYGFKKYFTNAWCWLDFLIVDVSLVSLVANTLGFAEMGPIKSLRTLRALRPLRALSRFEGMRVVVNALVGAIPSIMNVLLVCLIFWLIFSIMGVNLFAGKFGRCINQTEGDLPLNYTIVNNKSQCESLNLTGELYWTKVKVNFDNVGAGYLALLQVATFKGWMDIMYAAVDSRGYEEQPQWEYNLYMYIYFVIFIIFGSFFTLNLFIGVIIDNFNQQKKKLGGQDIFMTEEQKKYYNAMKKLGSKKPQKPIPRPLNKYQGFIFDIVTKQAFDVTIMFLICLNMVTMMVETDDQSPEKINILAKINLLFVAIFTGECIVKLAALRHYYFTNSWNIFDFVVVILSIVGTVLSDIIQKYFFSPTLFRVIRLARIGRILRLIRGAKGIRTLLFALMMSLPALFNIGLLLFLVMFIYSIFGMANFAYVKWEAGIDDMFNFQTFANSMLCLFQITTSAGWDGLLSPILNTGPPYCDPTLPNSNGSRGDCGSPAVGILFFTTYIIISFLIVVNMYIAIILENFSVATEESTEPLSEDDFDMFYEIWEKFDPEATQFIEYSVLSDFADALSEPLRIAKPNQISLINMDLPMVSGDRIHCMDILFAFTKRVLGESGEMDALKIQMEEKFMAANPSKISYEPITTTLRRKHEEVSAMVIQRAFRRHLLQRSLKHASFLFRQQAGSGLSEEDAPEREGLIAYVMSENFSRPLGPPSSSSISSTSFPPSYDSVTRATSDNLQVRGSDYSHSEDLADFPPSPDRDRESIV
Measurement description: Inhibition of Nav1.5 (unknown origin)
Measured attribute: IC50

IN: Quick one: IC50 of Cc1c([C@@H](O)CN2CCN(C[C@H](O)c3ccc4c(c3C)COC4=O)CC2)ccc2c1COC2=O [MK-7145] ?
OUT: > 30 µM

----------
Measurement description: Volume of distribution at steady state in rat at 1 mg/kg, iv or 2 mg/kg, po
Type: ADME, organism-based
Assay conditions: in vivo, read-out: Vdss
Measured attribute: Vd (L/kg)
# number only, unit L/kg dropped from output

Molecule	Measured attribute	Readout unit	Number
Cc1c([C@@H](O)CN2CCN(C[C@H](O)c3ccc4c(c3C)COC4=O)CC2)ccc2c1COC2=O	Vd	L/kg	3.8

Next item in the queue.
IN: Quick one: Vd of Cc1c(C(F)CN2CCN(C(=O)Cc3ccc(-n4cnnn4)cc3)CC2)ccc2c1COC2=O (configuration not stated) ?
OUT: 1.4

----------
Measurement description: Oral bioavailability in rat at 1 mg/kg
Type: ADME, organism-based
Assay conditions: in vivo
Listing: bioavailability of selected compounds
# number only, unit % dropped from output

Cc1c([C@H](O)CN2CCN(C[C@H](O)c3ccc4c(c3C)COC4=O)CC2)ccc2c1COC2=O 44

Next item in the queue.
IN: Quick one: bioavailability of Cc1c([C@H](O)CN2CCN(C[C@@H](O)c3ccc4c(c3C)COC4=O)CC2)ccc2c1COC2=O ?
OUT: 45

----------
Measurement description: Oral bioavailability in rhesus monkey at 2 mg/kg
Type: ADME, organism-based, Macaca mulatta
Assay conditions: in vivo
Measured attribute: bioavailability (%)
# number only, unit % dropped from output

IN: Quick one: bioavailability of Cc1c([C@@H](O)CN2CCN(C[C@H](O)c3ccc4c(c3C)COC4=O)CC2)ccc2c1COC2=O [MK-7145] ?
OUT: 25

----------
Test system: Voltage-dependent L-type calcium channel subunit alpha-1C (Homo sapiens, UniProt Q13936)
Sequence (Q13936 whole entry): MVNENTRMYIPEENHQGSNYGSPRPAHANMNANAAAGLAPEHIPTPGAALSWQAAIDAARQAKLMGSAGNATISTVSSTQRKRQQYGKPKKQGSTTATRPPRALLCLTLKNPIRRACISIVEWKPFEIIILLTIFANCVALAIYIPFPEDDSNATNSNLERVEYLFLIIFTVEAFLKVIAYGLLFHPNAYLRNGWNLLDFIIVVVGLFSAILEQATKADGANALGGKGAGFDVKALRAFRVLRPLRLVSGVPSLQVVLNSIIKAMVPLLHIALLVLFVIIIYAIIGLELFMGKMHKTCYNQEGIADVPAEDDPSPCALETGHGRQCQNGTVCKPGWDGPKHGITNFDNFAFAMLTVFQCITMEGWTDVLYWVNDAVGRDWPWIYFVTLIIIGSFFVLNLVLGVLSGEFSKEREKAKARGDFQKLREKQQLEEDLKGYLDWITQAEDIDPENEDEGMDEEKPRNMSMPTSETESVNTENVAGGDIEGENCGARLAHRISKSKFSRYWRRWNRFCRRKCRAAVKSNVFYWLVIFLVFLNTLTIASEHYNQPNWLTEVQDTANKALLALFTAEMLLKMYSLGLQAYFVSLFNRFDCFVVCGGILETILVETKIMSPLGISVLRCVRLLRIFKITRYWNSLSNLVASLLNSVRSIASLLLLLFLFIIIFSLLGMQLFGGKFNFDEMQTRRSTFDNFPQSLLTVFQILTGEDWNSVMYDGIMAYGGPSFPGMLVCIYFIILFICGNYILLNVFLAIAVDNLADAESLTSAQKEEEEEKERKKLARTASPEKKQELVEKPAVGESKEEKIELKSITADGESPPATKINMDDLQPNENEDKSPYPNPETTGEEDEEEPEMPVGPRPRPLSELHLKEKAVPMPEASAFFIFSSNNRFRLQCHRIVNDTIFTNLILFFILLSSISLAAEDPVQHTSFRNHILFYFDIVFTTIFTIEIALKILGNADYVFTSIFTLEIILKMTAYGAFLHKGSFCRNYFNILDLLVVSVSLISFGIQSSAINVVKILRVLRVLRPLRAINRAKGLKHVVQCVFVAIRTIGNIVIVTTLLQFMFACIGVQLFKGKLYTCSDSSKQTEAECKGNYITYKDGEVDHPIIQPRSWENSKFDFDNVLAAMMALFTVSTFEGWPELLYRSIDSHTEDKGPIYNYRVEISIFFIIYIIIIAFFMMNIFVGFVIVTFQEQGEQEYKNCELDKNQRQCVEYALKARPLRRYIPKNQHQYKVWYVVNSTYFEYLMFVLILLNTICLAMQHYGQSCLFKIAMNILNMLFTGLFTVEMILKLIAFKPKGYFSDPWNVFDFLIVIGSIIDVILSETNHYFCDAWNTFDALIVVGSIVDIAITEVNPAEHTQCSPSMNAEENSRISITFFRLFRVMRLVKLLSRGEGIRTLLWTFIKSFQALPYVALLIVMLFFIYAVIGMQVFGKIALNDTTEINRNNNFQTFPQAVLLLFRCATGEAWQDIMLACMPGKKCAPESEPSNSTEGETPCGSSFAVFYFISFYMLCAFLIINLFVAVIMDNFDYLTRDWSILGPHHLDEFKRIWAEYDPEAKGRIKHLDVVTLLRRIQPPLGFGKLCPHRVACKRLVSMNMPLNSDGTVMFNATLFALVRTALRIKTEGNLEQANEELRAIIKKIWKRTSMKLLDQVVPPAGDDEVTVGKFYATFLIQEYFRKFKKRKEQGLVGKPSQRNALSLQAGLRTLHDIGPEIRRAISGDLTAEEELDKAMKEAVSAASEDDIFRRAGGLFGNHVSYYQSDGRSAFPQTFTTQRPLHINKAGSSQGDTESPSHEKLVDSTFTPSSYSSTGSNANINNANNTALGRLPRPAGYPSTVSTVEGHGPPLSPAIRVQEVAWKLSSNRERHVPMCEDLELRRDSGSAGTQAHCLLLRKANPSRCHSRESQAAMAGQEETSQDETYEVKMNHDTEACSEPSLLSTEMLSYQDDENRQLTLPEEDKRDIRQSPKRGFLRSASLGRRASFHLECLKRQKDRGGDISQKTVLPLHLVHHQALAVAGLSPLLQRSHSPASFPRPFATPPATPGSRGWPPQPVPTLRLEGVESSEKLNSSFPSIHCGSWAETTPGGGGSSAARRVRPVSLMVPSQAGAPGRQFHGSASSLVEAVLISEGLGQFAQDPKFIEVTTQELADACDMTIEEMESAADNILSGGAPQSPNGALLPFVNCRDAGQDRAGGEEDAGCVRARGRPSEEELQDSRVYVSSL
Measurement description: Inhibition of Cav1.2 (unknown origin)
Measured attribute: IC50

IN: Quick one: IC50 of Cc1c([C@@H](O)CN2CCN(C[C@H](O)c3ccc4c(c3C)COC4=O)CC2)ccc2c1COC2=O ?
OUT: > 30 µM

----------
Measurement description: Oral bioavailability in rat at 2 mg/kg
Assay type: ADME, organism-based
Assay conditions: in vivo
Measured attribute: bioavailability (%)
# number only, unit % dropped from output

Compound	bioavailability (%)
Cc1c(C(F)CN2CCN(C(=O)Cc3ccc(-n4cnnn4)cc3)CC2)ccc2c1COC2=O (configuration not stated)	36

Next item in the queue.
IN: Quick one: bioavailability of Cc1c([C@@H](O)CN2CCN(C[C@H](O)c3ccc4c(c3C)COC4=O)CC2)ccc2c1COC2=O [MK-7145] ?
OUT: 21
